# targetUnderTest: FXR (Homo sapiens, UniProt Q96RI1)
# Sequence (Q96RI1 262-486 limits assumed): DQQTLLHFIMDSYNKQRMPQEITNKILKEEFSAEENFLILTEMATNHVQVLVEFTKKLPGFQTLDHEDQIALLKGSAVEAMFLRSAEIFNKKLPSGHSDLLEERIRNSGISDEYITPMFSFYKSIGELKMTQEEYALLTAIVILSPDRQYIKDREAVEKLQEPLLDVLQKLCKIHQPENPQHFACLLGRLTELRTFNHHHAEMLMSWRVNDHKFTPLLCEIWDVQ
# protocolDetails: FXR TR-FRET binding assay (DY246 fluorescent probe)
# appliedConditions: at 164 nM; read-out: FXR TR-FRET Binding % Inh.
measurementKind: inhibition at 0.164 µM (%)
The reply should be a number in %, with the unit left off.

Examples from the recorded data:
compound | inhibition at 0.164 µM / %
Cc1ccc(-c2nn(-c3cccc(Cl)c3)cc2C(=O)Nc2ccc(C)c(S(=O)(=O)N3CCOCC3)c2)cc1 [Compound 4b] | 99.3
Cc1ccc(-c2nn(Cc3ccc4ccccc4c3)cc2C(=O)Nc2ccc(C)c(S(=O)(=O)N3CCOCC3)c2)cc1 [Compound 4h] | 97.8
Cc1ccc(-c2nn(-c3ccc(Cl)cc3Cl)cc2C(=O)Nc2ccc(C)c(S(=O)(=O)N3CCOCC3)c2)cc1 [Compound 4c] | 120
COc1cccc(Cn2cc(C(=O)Nc3ccc(C)c(S(=O)(=O)N4CCOCC4)c3)c(-c3ccc(C)cc3)n2)c1 [Compound 4j] | 130
Cc1ccc(-c2nn(Cc3cccc(C(F)(F)F)c3)cc2C(=O)Nc2ccc(C)c(S(=O)(=O)N3CCOCC3)c2)cc1 [Compound 4k] | 99.2

// below: inhibition at 0.164 µM requested for another compound
Recorded inhibition at 0.164 µM (compound Cc1ccc(-c2nn(-c3nc4ccccc4s3)cc2C(=O)Nc2ccc(C)c(S(=O)(=O)N3CCOCC3)c2)cc1 [Compound 4e] ): 102

====

Recorded measurements of IC50, one per entry
# targetUnderTest: FXR (Homo sapiens)
# protocolDetails: GeneBLAzer FXR cell-based antagonistic assay (in presence of 400 nM GW4064)
# Set-up: the Gal4 DBD was fused to the LBD of FXR in this assay; host or cells: GeneBLAzer FXR-UAS-bla HEK 293T cells
# appliedConditions: with 400 nM GW4064; read-out: GB FXR Cell Anta. IC50
# Method: A GeneBLAzer FXR cell-based assay was used to investigate the cellular activities of the 1,3,4-trisubstituted-pyrazol-4-carboxamide analogs. […] FXR transactivation assays were performed using GeneBLAzer FXR-UAS-bla HEK 293T cells (Invitrogen). […] Plates were then incubated in dark for 90 min at room temperature before measuring the fluorescent emissions at 460 nm and 535 nm (using excitation at 400 nm) with an Envision plate reader with bottom read capacity. […]
Don't forget the unit after the number, please.

Worked set:
molecule | targetUnderTest | IC50
Cc1ccc(-c2nn(-c3ccc(Cl)cc3Cl)cc2C(=O)Nc2ccc(C)c(S(=O)(=O)N3CCOCC3)c2)cc1 | FXR (Homo sapiens) | 1.24 µM
COc1cccc(Cn2cc(C(=O)Nc3ccc(C)c(S(=O)(=O)N4CCOCC4)c3)c(-c3cccc(OC)c3)n2)c1 | FXR (Homo sapiens) | 1.24 µM
Cc1ccc(-c2nn(CCCCO)cc2C(=O)Nc2ccc(C)c(S(=O)(=O)N3CCOCC3)c2)cc1 | FXR (Homo sapiens) | 2.61 µM
Cc1ccc(-c2nn(-c3nc4ccccc4s3)cc2C(=O)Nc2ccc(C)c(S(=O)(=O)N3CCOCC3)c2)cc1 | FXR (Homo sapiens) | 7.91 µM
Cc1ccc(-c2nn(-c3cccc(Cl)c3)cc2C(=O)Nc2ccc(C)c(S(=O)(=O)N3CCOCC3)c2)cc1 | FXR (Homo sapiens) | 5.91 µM

Value of measured IC50 for the entry Cc1ccc(-c2nn(C(C)C)cc2C(=O)N(C)c2ccc(C)c(S(=O)(=O)N3CCOCC3)c2)cc1 : 16.2 µM

// Cc1ccc(-c2nn(-c3ccccc3)cc2C(=O)Nc2ccc(C)c(S(=O)(=O)N3CCOCC3)c2)cc1 [Compound Z26476908, reference compound] : IC50 value = 2.62 µM
